- Tested on: RPMI-8226 leukemia
- experiment: NCI-60 one-dose screen, 48 h
- condition_info: 10 µM unless noted
- Method: Growth inhibition of the RPMI-8226 human tumor cell line is measured as a screen for anti-cancer activity. Cells are grown in 96 well plates and exposed to the test compound for 48 hours. Compounds are tested at a single concentration, which is 10^-5 M for most compounds. The reported endpoint is percent growth (GI% or GIPRCNT), where numbers from 0 - 100% represent growth inhibition, and numbers from -100% - 0 represent cell death. For example, a value of 40 represents 60% growth inhibition. […]
The panel holds about 83,000 compounds, 20% with a hit somewhere; the sample as a whole holds those more often. Active and inactive are the calls of the source. Rule for the calls: active = growth percent below 10; inactive = the rest.
Write down one outcome, taken from active, inactive

Completed entries (count: 4):
Inquiry: // return assay outcome for CC1(C)CC[C@]2(C(=O)O)CC[C@]3(C)C(=CCC4[C@@]5(C)C[C@@H](O)[C@@H]6OC(c7ccccc7F)OC[C@@]6(C)C5CC[C@]43C)C2C1 (some centres undefined)
Reply text: inactive

Inquiry: How was CC(C)CSc1nc(NCCc2c[nH]c3ccccc23)c(C#N)c(-c2ccc(F)cc2)n1 classified in this test?
Reply text: inactive

Inquiry: How did this test come out for O=C(/C=C/c1cccc(OCc2ccccc2)c1)c1nc2ccccc2[nH]1 ?
Reply text: active

Inquiry: Which result was noted for this molecule in the test: COc1ccc2c(c1)c(-c1cc3nc(-c4cn(C)c5ncccc45)cc(N)n3n1)cn2C
Reply text: active

Continuing:
Inquiry: Just curious, what result did COC(OC)C1=C(C)OC(N)=C(C#N)C12C(=O)Nc1ccccc12 (centres undefined) get here?
Reply text: inactive

Inquiry: Outcome? O=c1oc2ccccc2cc1-c1csc(N2N=C(c3ccccc3)CC2c2ccc(N3CCOCC3)cc2)n1 (centres undefined)
Reply text: inactive

Inquiry: Answer briefly: the call reported for CC(=O)c1c(N)c(C#N)cn1-c1ccc(Cl)cc1Cl in this assay.
Reply text: inactive

Inquiry: Which outcome was assigned to O=C1NC(=O)c2c1c1c3cc(Br)ccc3[nH]c1c1oc3ccc(F)cc3c21 in this test?
Reply text: inactive

Inquiry: Check the results log: what was the call for CCC(C)(C)c1ccc(OCCCCN2CCN(c3ccncc3)CC2)cc1 ?
Reply text: active

====

- Tested on: PC-3 prostate
- experiment: NCI-60 one-dose screen, 48 h (100 = growth as untreated, 0 = no growth, -100 = all killed)
- condition_info: 10 µM unless noted
About 83,000 compounds went through this panel and 20% of them were active in at least one assay; those are over-represented in the sample as a whole.
value_type: growth (%)
Response body: numeric value in %, unit text excluded.

Solved cases below.
// COc1cc2c(c(OC)c1OC)C(=O)CC(c1cccc(NC(=O)c3cc(NC(=O)[C@H](C)N)ccc3Cl)c1)O2 (some centres undefined) : growth value = 22

Per the records, this compound ( COc1ccc(-c2nc3cc(C)ccc3n2CC(=O)N=Nc2c(O)[nH]c3ccc(Br)cc23)cc1 ) has growth equal to 13.9

Value of measured growth for the entry O=C1N/C(=N\c2nccs2)S/C1=C\C=C/c1ccccc1 : 46.6

Next:
So, O=C(c1ccc(OCCN2CCOCC2)cc1)C1[C@H](c2ccc(Cl)cc2)[C@@H](c2ccccc2)NC12C(=O)Nc1ccc(Cl)cc12 (some centres undefined) ? Its growth was 6.16

====

- Test system: SR leukemia
- experiment: NCI-60 one-dose screen, 48 h (100 = growth as untreated, 0 = no growth, -100 = all killed)
- condition_info: 10 µM unless noted
The panel holds about 83,000 compounds, 20% with a hit somewhere; the sample as a whole holds those more often.
Use 20% as the dividing line for growth, with the line itself on the 1 side and lower values as 0.

Inquiry: Hi, just wondering whether Cc1ccc(C(SCCNCc2cc(N(C)C)ccn2)(c2ccccc2)c2ccccc2)cc1 shows growth of 20% or higher.
Reply text: 0

---
Inquiry: Dear colleague, could you confirm whether Cc1cccc(NC(=O)CN2CCN(c3ncnc4c3cnn4-c3ccccc3)CC2)c1 has growth at or above 20%?
Reply text: 1

Inquiry: Test whether the compound Cc1ccc(C(=O)NN2C(=O)/C(=C/C=C/c3ccc([N+](=O)[O-])o3)SC2=S)cc1 records growth of 20% or higher.
Reply text: 0

Inquiry: Hi, just wondering whether O=C(NN1C(=O)/C(=C/C=C/c2ccc([N+](=O)[O-])o2)SC1=S)c1ccccc1O shows growth of 20% or higher.
Reply text: 0

Inquiry: Assess whether reported growth for CC(=O)Nc1ccc(-c2nc3cc(-c4ccc(O)cc4)ccc3n2C)cc1 sits at 20% or higher.
Reply text: 1

Inquiry: Confirm if growth reported for the compound Cn1cc(-c2nnc(N)nc2-c2c[nH]c3ccc(Br)cc23)c2cc(Br)cnc21 is 20% or above.
Reply text: 1

Inquiry: # bool: growth of COc1cc(CNC(=O)/C=C/c2ccc3c(c2)OCO3)ccc1OCc1cn(-c2cccc(C(F)(F)F)c2)nn1 >= 20%
Reply text: 1

Inquiry: Has C/C(=N\N=C\c1cc([N+](=O)[O-])ccc1Cl)c1ccc2c(c1)Nc1ccccc1S2 a recorded growth greater than or equal to 20%?
Reply text: 1

Inquiry: Test whether the compound CCOC(=O)C1=C(N)N(c2ccccc2)C2=C(C(=O)CC(C)(C)C2)C1c1ccc(Cl)cc1Cl (centres undefined) records growth of 20% or higher.
Reply text: 0

====

- Tested on: CAKI-1 renal
- experiment: NCI-60 one-dose screen, 48 h (100 = growth as untreated, 0 = no growth, -100 = all killed)
- condition_info: 10 µM unless noted
The panel holds about 83,000 compounds, 20% with a hit somewhere; the sample as a whole holds those more often.
Quick rule: growth of at least 40% means TRUE, below that means FALSE.

Inquiry: # check: growth of C=C1CC[C@@H]2[C@]3(C)COC(c4ccccc4)O[C@@H]3CC[C@@]2(C)[C@@H]1C/C=C1/C(=O)OCC1OC(C)=O (stereo partly drawn) is greater than or equal to 40%
Reply text: FALSE

Inquiry: Is the recorded value of growth equal to or greater than 40% for this molecule? COc1cc2c(c(OC)c1OC)C(=O)CC(c1cccc(NC(=O)c3cccc([N+](=O)[O-])c3)c1)O2 (stereo not drawn)
Reply text: FALSE

Continuing:
Inquiry: Does the reported growth for CN(C)c1nc(NCCNS(=O)(=O)c2ccc(C3=Nc4c(N)nc(N)nc4NC(c4ccc(C(F)(F)F)cc4)C3)cc2)nc(Nc2ccc(F)cc2)n1 (stereo not drawn) fall at or above the 40% mark?
Reply text: TRUE

Inquiry: In plain terms: is recorded growth at least 40% for COc1ccc(N2N=C(c3ccc4c(c3)OCO4)CC2c2cccc(NC(=O)CCCNS(=O)(=O)c3ccc(F)cc3)c2)cc1 (stereo not drawn) ?
Reply text: TRUE

Inquiry: Exam item: decide whether the reported growth for COc1ccc(NC(=O)[C@H](C)N)cc1C(=O)Nc1cccc(C2CC(=O)c3c(cc(OC)c(OC)c3OC)O2)c1 (stereo partly drawn) is at least 40%.
Reply text: TRUE

====

- Tested on: HOP-62 NSCLC
- experiment: NCI-60 one-dose screen, 48 h (100 = growth as untreated, 0 = no growth, -100 = all killed)
- condition_info: 10 µM unless noted
This is part of a sample that, as a whole, favours compounds with a hit. Of some 83,000 tested, about 20% had one in any assay.
Could you label it fulfilled if measured growth is 50% or higher, and not fulfilled otherwise?

As a guide, the following entries are already answered.
Inquiry: Form field: growth at least 50%? Entry: CCOC(=O)/C=C/c1cccc2c1C(=O)NC(C)(c1cc3cc(Cl)ccc3oc1=O)N2 (stereo not given)
Reply text: fulfilled

Inquiry: Dear colleague, could you confirm whether O=C(N=Nc1c(O)[nH]c2ccc([N+](=O)[O-])cc12)c1ccc2nc(-c3ccccc3)[nH]c2c1 has growth at or above 50%?
Reply text: fulfilled

More entries:
Inquiry: # check: growth of N#Cc1c(-c2ccccc2Cl)cc(-c2ccc3ccccc3c2)[nH]c1=O is greater than or equal to 50%
Reply text: not fulfilled

Inquiry: Does COc1ccc2c(c1)c(/C=N/Nc1ccc3ccccc3n1)cn2C have a reported growth of at least 50%?
Reply text: not fulfilled

====

- Test system: CCRF-CEM leukemia
- experiment: NCI-60 one-dose screen, 48 h
- condition_info: 10 µM unless noted
About 83,000 compounds went through this panel and 20% of them were active in at least one assay; those are over-represented in the sample as a whole. Activity calls are given as the source filed them. How the source made its calls: active means growth percent below 10; inactive means the rest.
One label from this list, please: y for active, n for inactive

Example results:
Inquiry: Please let me know the test result on file for Cc1cccc(-c2nc(Nc3cccc(S(N)(=O)=O)c3)c3ccccc3n2)c1 .
Reply text: n

Inquiry: # lookup: test call for O=C(c1ccc(OCCN2CCOCC2)cc1)C1[C@H](c2ccc(Cl)cc2)[C@@H](c2ccccc2)NC12C(=O)Nc1ccc(Br)cc12 (stereo partly drawn)
Reply text: n

Inquiry: Lab log entry: O=C(/C=C/c1cccc(OCc2ccc(F)cc2)c1)c1nc2ccccc2[nH]1 — outcome as called in the assay?
Reply text: y

Inquiry: Could you please tell me the result logged for N#Cc1ccc(/C=N/NC(=O)c2[nH]c3ccc(Br)cc3c2-c2ccccc2)o1 in this assay?
Reply text: y

Inquiry: For CC1(c2cc3cc(Cl)ccc3oc2=O)NC(=O)c2c(/C=C/C(=O)OC3CC4CCC3(C)C4(C)C)cccc2N1 (stereo not drawn) , what call appears in the results of this test?
Reply text: n

More entries:
Inquiry: Recorded test outcome, item C=C1CCC2C3(C)COC(c4ccco4)OC3CCC2(C)C1CC(Sc1ccccc1)C1=CCOC1=O (stereo not drawn)
Reply text: y

Inquiry: Called result for CN(C)CCCNC(=O)c1cc(NC(=O)c2cc(NC(=O)c3ccc(C#Cc4ccccc4)cc3)cn2C)cn1C
Reply text: y
